# system-tested: hERG (Homo sapiens)
# Sequence (Q12809 whole entry): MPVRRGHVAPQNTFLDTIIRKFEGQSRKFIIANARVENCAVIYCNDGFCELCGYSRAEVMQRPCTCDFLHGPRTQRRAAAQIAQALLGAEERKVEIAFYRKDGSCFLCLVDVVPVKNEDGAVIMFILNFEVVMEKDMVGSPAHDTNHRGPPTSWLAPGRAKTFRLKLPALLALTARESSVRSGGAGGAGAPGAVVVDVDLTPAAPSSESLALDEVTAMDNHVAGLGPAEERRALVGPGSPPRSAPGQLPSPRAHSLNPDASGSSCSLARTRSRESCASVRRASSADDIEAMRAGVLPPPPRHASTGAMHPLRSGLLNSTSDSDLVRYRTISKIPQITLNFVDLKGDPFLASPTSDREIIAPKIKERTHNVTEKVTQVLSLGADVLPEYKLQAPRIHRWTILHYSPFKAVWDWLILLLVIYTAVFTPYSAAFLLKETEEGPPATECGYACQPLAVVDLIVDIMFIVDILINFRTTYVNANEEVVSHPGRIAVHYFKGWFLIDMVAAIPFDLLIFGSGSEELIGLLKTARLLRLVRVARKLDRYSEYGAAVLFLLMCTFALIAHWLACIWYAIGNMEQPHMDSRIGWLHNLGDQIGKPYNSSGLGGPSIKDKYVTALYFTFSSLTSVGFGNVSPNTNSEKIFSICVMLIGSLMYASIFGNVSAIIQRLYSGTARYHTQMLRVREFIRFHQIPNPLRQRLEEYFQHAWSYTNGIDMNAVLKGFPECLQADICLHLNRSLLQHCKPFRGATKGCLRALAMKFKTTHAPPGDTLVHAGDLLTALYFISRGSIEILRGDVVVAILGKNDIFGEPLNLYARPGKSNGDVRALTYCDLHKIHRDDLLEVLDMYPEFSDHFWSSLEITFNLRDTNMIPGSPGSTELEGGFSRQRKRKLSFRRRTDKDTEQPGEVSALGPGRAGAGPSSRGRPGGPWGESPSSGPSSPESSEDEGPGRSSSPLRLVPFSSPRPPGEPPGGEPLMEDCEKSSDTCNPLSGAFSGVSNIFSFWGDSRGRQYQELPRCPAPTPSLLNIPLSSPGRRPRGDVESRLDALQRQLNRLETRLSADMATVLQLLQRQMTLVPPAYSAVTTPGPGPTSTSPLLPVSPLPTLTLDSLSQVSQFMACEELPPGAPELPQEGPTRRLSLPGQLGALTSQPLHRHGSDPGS
# experiment-description: Inhibition of hERG current at 10 uM
# Assay type: toxicity
measured-parameter: inhibition at 10 µM
Give the figure together with its unit, number first.

Returns the measured inhibition at 10 µM for the input compound. Input: O=C(NC[C@H]1CC[C@@H](CCOc2ccccc2)CC1)c1cn[nH]c1
36%

====

# system-tested: Glutamate receptor ionotropic, NMDA 2B (Rattus norvegicus, UniProt P35439+Q00960)
# Sequence (Q00960 whole entry, one chain of several): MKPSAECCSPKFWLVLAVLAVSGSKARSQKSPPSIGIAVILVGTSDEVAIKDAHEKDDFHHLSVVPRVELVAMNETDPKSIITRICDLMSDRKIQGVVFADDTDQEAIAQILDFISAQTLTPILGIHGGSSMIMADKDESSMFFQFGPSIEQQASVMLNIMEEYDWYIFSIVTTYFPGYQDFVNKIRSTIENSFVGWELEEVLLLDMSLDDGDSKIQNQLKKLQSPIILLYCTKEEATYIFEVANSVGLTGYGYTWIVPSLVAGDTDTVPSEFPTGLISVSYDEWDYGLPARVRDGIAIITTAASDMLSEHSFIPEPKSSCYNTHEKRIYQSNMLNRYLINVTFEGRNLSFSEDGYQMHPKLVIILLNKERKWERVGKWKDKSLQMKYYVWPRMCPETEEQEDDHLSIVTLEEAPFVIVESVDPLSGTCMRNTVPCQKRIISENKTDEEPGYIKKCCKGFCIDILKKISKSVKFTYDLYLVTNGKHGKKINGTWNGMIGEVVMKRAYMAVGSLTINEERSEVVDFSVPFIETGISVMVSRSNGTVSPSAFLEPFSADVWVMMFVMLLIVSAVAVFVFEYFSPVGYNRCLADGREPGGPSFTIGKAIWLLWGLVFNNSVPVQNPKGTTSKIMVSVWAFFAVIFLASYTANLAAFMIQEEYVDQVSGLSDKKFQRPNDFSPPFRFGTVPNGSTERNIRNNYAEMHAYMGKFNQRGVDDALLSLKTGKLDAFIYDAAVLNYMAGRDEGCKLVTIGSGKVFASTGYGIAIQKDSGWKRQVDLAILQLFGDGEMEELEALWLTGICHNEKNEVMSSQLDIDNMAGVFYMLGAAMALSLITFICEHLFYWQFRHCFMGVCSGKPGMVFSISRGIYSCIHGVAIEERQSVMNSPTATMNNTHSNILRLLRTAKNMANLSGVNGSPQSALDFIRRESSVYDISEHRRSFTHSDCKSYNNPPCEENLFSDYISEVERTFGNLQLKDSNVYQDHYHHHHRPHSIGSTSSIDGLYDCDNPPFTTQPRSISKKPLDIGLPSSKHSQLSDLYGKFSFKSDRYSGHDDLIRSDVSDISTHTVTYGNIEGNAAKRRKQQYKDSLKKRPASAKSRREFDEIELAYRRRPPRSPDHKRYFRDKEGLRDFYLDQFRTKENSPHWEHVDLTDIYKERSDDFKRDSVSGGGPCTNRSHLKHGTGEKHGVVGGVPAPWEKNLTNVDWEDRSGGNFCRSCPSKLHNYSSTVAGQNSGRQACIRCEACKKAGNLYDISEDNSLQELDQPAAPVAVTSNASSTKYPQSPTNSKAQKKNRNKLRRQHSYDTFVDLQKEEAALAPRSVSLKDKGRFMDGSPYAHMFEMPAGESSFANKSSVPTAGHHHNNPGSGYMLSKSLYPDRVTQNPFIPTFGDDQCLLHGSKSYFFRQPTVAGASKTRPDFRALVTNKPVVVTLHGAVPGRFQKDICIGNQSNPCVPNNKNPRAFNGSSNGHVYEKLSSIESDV
# experiment-description: Displacement of [3H]racemic CP-101606 from rat NR2B receptor in P2 membrane
Mark MET only when Ki stays strictly below 9 nM. Values equal to the cut-off are NOT MET.

Would you kindly verify if Ki of O=C(NC[C@H]1CC[C@@H](COc2ccccc2)CC1)c1ccc(O)cc1 is strictly less than 9 nM?
MET

Subsequent entry: O=C(NC[C@H]1CC[C@@H](CCOc2ccccc2)CC1)c1cc(F)c(O)c(F)c1
MET

Subsequent entry: O=C1C=CC(C(=O)NC[C@H]2CC[C@@H](COc3ccccc3)CC2)NN1 (stereo partly drawn)
NOT MET

Subsequent entry: Nc1[nH]ncc1C(=O)NC[C@H]1CC[C@@H](COc2ccccc2)CC1
NOT MET

Subsequent entry: Nc1n[nH]cc1C(=O)NC[C@H]1CC[C@@H](CCOc2ccccc2)CC1
MET

Subsequent entry: O=C1CCc2cc(C(=O)NC[C@H]3CC[C@@H](CCOc4ccccc4)CC3)ccc2N1
MET

Subsequent entry: O=C(NC[C@H]1CC[C@@H](COc2ccccc2)CC1)c1cc[nH]c1
NOT MET

Subsequent entry: Cc1n[nH]c(C)c1C(=O)NC[C@H]1CC[C@@H](COc2ccccc2)CC1
NOT MET

Subsequent entry: O=C1CCc2cc(C(=O)NC[C@H]3CC[C@@H](COc4ccccc4)CC3)ccc2N1
NOT MET

====

# experiment-description: Metabolic stability assessed as half life in human liver microsomes
# Assay type: ADME, Microsome
Measured half-life accompanies every entry in the list below.
Give your result in min as a bare value.

Returns the measured half-life for the input compound. Input: O=C(NC[C@H]1CC[C@@H](COc2ccccc2)CC1)c1cn[nH]c1
44

====

# system-tested: Glutamate receptor ionotropic, NMDA 2B (Rattus norvegicus, UniProt P35439+Q00960)
# experiment-description: Displacement of [3H]racemic CP-101606 from rat NR2B receptor in P2 membrane
Mark satisfied only when Ki stays strictly below 10 nM. Values equal to the cut-off are not satisfied.

O=C(NC[C@H]1CC[C@@H](COc2ccccc2)CC1)c1cn[nH]c1 = not satisfied
O=C(NC[C@H]1CC[C@@H](COc2ccccc2)CC1)c1ccn[nH]1 = not satisfied

Would you kindly verify if Ki of O=C(NC[C@H]1CC[C@@H](CCOc2ccccc2)CC1)c1cc[nH]c1 is strictly less than 10 nM?
satisfied

Subsequent entry: O=C(NC[C@H]1CC[C@@H](COc2ccccc2)CC1)c1ccc(=O)[nH]n1
not satisfied

Subsequent entry: O=C(NC[C@H]1CC[C@@H](CCOc2ccccc2)CC1)c1ccn[nH]1
satisfied

Subsequent entry: O=C(NC[C@H]1CC[C@@H](CCOc2ccccc2)CC1)c1ccc2[nH]ncc2c1
not satisfied

Subsequent entry: O=C(NC[C@H]1CC[C@@H](CCOc2ccccc2)CC1)c1ccc(=O)[nH]n1
satisfied

====

# experiment-description: Metabolic stability assessed as half life in human liver microsomes
# Assay type: ADME, Microsome
measured-parameter: half-life

O=C(NC[C@H]1CC[C@@H](COc2ccccc2)CC1)c1ccc(O)cc1 = 2.3 min

Returns the measured half-life for the input molecule. Input: O=C(NC[C@H]1CC[C@@H](CCOc2ccccc2)CC1)c1ccn[nH]1
36 min

Subsequent entry: Nc1n[nH]cc1C(=O)NC[C@H]1CC[C@@H](CCOc2ccccc2)CC1
59 min

====

# system-tested: Glutamate receptor ionotropic, NMDA 2B (Rattus norvegicus, UniProt P35439+Q00960)
# experiment-description: Displacement of [3H]racemic CP-101606 from rat NR2B receptor in P2 membrane
Mark satisfied only when Ki stays strictly below 6 nM. Values equal to the cut-off are not satisfied.

Below, 6 molecules whose answers are already recorded.
O=C1C=CC(C(=O)NC[C@H]2CC[C@@H](CCOc3ccccc3)CC2)NN1 (some centres not stated) = not satisfied
O=C(NC[C@H]1CC[C@@H](CCOc2ccccc2)CC1)c1cn[nH]c1 = satisfied
Cc1n[nH]c(C)c1C(=O)NC[C@H]1CC[C@@H](CCOc2ccccc2)CC1 = not satisfied
O=C(NCc1cccc(C(=O)NCc2ccccc2)c1)c1ccc(O)cc1 = not satisfied
O=C(NC[C@H]1CC[C@@H](COc2ccccc2)CC1)c1cc(F)c(O)c(F)c1 = not satisfied
O=C(NC[C@H]1CC[C@@H](CCOc2ccccc2)CC1)c1ccc(O)cc1 = not satisfied

// next entry
Would you kindly verify if Ki of O=C(NCc1cccc(OCCc2ccccc2)c1)c1ccc(O)cc1 is strictly less than 6 nM?
satisfied
